Target: ALPP (Homo sapiens, UniProt P05187)
Sequence (P05187 with tags, fused parts or gaps): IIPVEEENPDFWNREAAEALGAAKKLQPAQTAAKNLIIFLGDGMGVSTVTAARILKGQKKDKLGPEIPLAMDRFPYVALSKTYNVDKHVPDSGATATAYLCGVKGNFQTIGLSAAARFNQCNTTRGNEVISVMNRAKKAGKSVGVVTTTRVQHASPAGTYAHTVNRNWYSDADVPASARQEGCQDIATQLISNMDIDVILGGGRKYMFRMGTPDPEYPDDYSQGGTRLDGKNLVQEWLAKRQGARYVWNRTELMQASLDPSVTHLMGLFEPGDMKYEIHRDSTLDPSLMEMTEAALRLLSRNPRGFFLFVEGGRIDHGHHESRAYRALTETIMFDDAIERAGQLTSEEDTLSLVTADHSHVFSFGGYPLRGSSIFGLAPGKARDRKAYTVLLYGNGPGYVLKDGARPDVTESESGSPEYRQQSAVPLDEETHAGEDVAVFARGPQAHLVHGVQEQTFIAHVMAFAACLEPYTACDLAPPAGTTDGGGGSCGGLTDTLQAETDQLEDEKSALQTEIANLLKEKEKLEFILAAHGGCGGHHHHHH
Assay: BLI binding kinetics, human ALPP immobilised on AR2G sensors (KD / KD apparent)
Conditions: VHH domains

| molecule | hALPP Kd |
| --- | --- |
| D11: ALPP targeting VHH domain, SEQ ID NO: 29 (protein) VHH: QVQLVESGGGSVQAGGSLRLSCAASGPSLSNYAMGWFRQAPGKEREFVAGISWGGGRTSYTDSVKGRFTISRDNAKNTVYLQMNNLKPEDTGVYYCAGRYGRGRNVEYEYDYWGQGTMVTVSS | <1e-07 s⁻¹ |
| E06: ALPP/ALPPL2 targeting VHH domain, SEQ ID NO: 30 (protein) VHH: QVHLVESGGGLVQAGGSLRLSCAASRRSFSEYAMGWFRQAPGKEREFVAAIGWSGVIEYADSVKGRFTISRDNAKDTVYLQMNSLKPEDTAVYYCAAGLGIRVVSQTPAYWGQGTQVTVSS | <1e-07 s⁻¹ |
| F05: ALPP/ALPPL2 targeting VHH domain, SEQ ID NO: 34 (protein) VHH: QVQLVESGGGLVQAGGSLRLSCAASGRAFGDYNIGWFRQAPGKEREFVARRTWDGSSTRYDDSVKGRFTVSIDNAKNTAYLQMNSLKTEDTAVYYCAAGRYSRVRGWEYDYWGQGTQVTVSS | <1e-07 s⁻¹ |
| C06: ALPP targeting VHH domain, SEQ ID NO: 24 (protein) VHH: QVQLVESGGGLVQPGGSLRVSCAASGPSLSNYAMGWFRQAPGKEREFVAGISWGGGRTSYTDSVKGRFTISRDNAKNTVYLQMNNLKPEDTGVYYCAGRYGRGRNVEYEYDYWGQGTQVTVSS | <1e-07 s⁻¹ |
